system tested: T1, human CD28 (human, UniProt P10747 19-220)
T1 construct: Endogenous CD28 on Jurkat/IL2 reporter cells
assay comment: flow cytometry on Jurkat cells (CD28); vs CD80 WT IgV-Fc
measured endpoint: Fold change to WT CD80 (fold)
Express the result in fold but write the number alone.

Known results for binders:
binder | quantity unit | Fold change to WT CD80
CD80 E35D/D46V/M47L/V68M/L85Q/E88D IgV-Fc, EAAAK linker (Fc fusion, not shown: a dimerising Fc or GST) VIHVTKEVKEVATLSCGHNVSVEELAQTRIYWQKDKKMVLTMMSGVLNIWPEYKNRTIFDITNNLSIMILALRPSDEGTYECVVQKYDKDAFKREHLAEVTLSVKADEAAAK | fold | 10.1
CD80 E35D/D46V/M47L/V68M/L85Q/E88D IgV-Fc, delta linker (Fc fusion, Fused directly to the Fc with no additional linker; also called E35D/D46V/M47L/V68M/L85Q/E88D delta) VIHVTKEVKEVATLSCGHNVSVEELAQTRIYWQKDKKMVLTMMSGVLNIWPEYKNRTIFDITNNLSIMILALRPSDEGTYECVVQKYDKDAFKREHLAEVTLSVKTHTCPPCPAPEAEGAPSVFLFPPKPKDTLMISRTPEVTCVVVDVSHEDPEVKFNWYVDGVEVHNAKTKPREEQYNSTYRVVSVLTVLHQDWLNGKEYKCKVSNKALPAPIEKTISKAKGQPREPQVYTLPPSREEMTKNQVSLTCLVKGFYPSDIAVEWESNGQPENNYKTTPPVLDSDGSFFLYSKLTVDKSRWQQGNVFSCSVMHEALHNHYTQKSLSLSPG | fold | 74.7
CD80 E35D/D46V/M47L/V68M/L85Q/E88D IgV-Fc, GS(G4S)5 linker (Fc fusion, not shown: a dimerising Fc or GST) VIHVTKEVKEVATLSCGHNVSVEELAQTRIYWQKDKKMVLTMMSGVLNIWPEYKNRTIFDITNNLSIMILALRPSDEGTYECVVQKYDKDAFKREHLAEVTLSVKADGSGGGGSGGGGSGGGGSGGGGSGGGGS | fold | 2.6
wild-type CD80 IgV-Fc (inert) with GSG4S linker, Example 16 (Fc fusion, also called CD80 WT IgV-Fc) VIHVTKEVKEVATLSCGHNVSVEELAQTRIYWQKEKKMVLTMMSGDMNIWPEYKNRTIFDITNNLSIVILALRPSDEGTYECVVLKYEKDAFKREHLAEVTLSVKADGSGGGGSEPKSSDKTHTCPPCPAPEAEGAPSVFLFPPKPKDTLMISRTPEVTCVVVDVSHEDPEVKFNWYVDGVEVHNAKTKPREEQYNSTYRVVSVLTVLHQDWLNGKEYKCKVSNKALPAPIEKTISKAKGQPREPQVYTLPPSREEMTKNQVSLTCLVKGFYPSDIAVEWESNGQPENNYKTTPPVLDSDGSFFLYSKLTVDKSRWQQGNVFSCSVMHEALHNHYTQKSLSLSPG | fold | 1
CD80 E35D/D46V/M47L/V68M/L85Q/E88D IgV-Fc, (EAAAK)3 linker (Fc fusion, not shown: a dimerising Fc or GST) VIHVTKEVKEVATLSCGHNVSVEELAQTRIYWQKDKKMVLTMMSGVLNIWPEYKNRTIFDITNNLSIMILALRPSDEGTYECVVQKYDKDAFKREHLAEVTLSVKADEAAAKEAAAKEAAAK | fold | 3.5
CD80 E35D/M47V/N48K/V68M/K89N IgV-Fc, delta linker (Fc fusion, Fused directly to the Fc with no additional linker; also called E35D/M47V/N48K/V68M/K89N delta) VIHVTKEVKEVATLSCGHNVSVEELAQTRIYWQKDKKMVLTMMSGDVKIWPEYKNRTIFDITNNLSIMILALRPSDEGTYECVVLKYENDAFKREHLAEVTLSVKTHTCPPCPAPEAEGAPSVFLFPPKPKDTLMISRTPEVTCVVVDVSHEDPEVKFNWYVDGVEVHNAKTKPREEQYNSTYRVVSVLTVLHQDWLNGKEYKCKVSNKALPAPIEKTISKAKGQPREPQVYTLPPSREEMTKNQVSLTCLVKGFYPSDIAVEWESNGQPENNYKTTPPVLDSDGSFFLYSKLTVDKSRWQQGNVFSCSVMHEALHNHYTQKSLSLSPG | fold | 83.7

Now for the binder whose Fold change to WT CD80 we want.
INPUT: Fill in Fold change to WT CD80 for record CD80 E35D/M47V/N48K/V68M/K89N IgV-Fc, EAAAK linker (Fc fusion, not shown: a dimerising Fc or GST) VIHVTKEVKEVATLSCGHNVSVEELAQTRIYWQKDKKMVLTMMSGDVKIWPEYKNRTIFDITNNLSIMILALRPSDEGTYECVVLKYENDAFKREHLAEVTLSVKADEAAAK
OUTPUT: 47.1
